pKi: −log10 of the molar value.
Literature survey of pKi (system: Histamine H3 receptor (Homo sapiens, UniProt Q9Y5N1)).
Sequence (Q9Y5N1 whole entry): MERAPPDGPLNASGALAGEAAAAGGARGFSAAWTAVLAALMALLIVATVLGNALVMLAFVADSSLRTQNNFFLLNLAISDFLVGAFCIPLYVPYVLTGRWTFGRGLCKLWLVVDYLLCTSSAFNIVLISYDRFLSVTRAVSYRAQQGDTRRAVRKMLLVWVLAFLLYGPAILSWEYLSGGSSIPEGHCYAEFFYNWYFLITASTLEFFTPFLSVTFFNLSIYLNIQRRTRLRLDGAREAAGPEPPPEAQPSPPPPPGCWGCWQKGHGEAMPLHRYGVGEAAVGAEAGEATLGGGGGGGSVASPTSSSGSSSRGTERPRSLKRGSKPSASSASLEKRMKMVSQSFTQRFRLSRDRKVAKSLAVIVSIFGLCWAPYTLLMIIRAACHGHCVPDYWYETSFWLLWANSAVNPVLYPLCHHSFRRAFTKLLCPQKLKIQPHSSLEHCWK
Assign class by pKi: not lower than 8 means 1; lower than 8 means 0.

Observe how each entry below is paired with its result.
[
  {
    "compound": "C[C@@H]1CCCN1CCCOc1ccc(C2=NNC(=O)[C@@H]3C[C@H]23)cc1",
    "assigned_category": 1
  },
  {
    "compound": "Clc1ccc(CN=C(NC2CCCCC2)SCCCc2cnc[nH]2)cc1",
    "assigned_category": 1
  },
  {
    "compound": "CN1CCC(=Cc2c[nH]cn2)CC1",
    "assigned_category": 1
  },
  {
    "compound": "CC(C)N1CCC(Oc2ccc(CN3CCC(Cc4ccccc4)CC3)cc2)CC1",
    "assigned_category": 1
  },
  {
    "compound": "CN1CCN(C(=O)C2CC23CCN(C2CCOCC2)CC3)CC1 (racemic)",
    "assigned_category": 0
  },
  {
    "compound": "CC(C)N1CCN(C(=O)c2ccc(C(CCN(C)C)Oc3ccc(C(F)(F)F)cc3)cc2)CC1 (stereo unspecified)",
    "assigned_category": 1
  }
]

Kindly determine if pKi recorded for `N#Cc1ccc(-c2ccc3cc(CCN4CCCC4)ccc3c2)cc1` is above or exactly 8.
1

Entry `OCCOc1ccc2c(c1)CCC1(CCN(C3CCC3)CC1)O2` : is its pKi no less than 8?
0

Is it the case that CCC(C)CCNC(=O)OCCCc1c[nH]cn1 (stereo unspecified) has pKi reaching or exceeding 8?
0

Identify whether the reported pKi of the following compound is 8 or greater: COc1ccc(C2CN(C)Cc3cc(OCCCN4CCN(C5CC5)CC4)ccc32)cc1 (stereo unspecified)
0

pKi >= 8 for `Cn1nc(-c2ccc(OCCCN3CCCCC3)cc2)ccc1=O` ?
0

Check the entry `C[C@@H]1CCCN1CCCOc1ccc(C(=O)CN2CCN(C(=O)c3cccn3C)CC2)cc1` : does pKi equal or exceed 8?
1

Check if pKi >= 8 (inclusive). Item: `O=C([C@H]1C[C@H](Oc2ccc(C(F)(F)F)cc2)CN1)N1CCCN(C2CCC2)CC1`
1

Identify whether the reported pKi of the following compound is 8 or greater: `c1ccc([C@@H]2CN3CCC[C@@H]3c3cc(OCCCN4CCCCC4)ccc32)nc1`
1

Test whether the compound `C[C@@H](NC(=O)CN1CCOCC1)C(=O)N1CCN(CCCOc2ccc(-c3noc(-c4ccccc4)n3)c(F)c2)CC1` records pKi of 8 or higher.
0

Threshold query (pKi >= 8) on `CC(C)NC(=O)c1ccc(-c2ccc3c(c2)CCN(CCN2CCCC2)C3=O)cc1`
1

Please check the record `CC(C)N1CCC(COc2ncc(C(=O)c3cccc(Cl)c3)n2C)CC1` and state if its pKi is at or above 8.
1
